- target of assay: Der p 1 (Dermatophagoides pteronyssinus, UniProt P08176)
- Sequence (P08176 99-320): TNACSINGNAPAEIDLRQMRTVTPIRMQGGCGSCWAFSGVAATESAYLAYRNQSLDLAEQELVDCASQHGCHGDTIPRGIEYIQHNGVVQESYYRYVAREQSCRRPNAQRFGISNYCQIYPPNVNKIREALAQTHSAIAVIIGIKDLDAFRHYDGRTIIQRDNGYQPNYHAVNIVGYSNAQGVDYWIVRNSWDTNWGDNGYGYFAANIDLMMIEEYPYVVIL
- protocol description: biochemical
- Assay type: biochemical
- assay context: mean ± SE
metric name: IC50 (µM)

compound: CC(C)[C@H](NC(=O)[C@H](C)NC(=O)[C@@H](N1Cc2ccccc2C1=O)C(C)(C)C)C(=O)C(=O)NCc1ccc(S(N)(=O)=O)cc1
target of assay: Der p 1 (Dermatophagoides pteronyssinus, UniProt P08176)
recorded measurement: 0.003

compound: CNC(=O)c1ccc(CNC(=O)C(=O)[C@@H](NC(=O)[C@H](C)NC(=O)[C@@H](N2Cc3ccccc3C2=O)C(C)(C)C)C(C)C)cc1
target of assay: Der p 1 (Dermatophagoides pteronyssinus, UniProt P08176)
recorded measurement: 0.004

compound: CC(C)[C@H](NC(=O)[C@H](C)NC(=O)[C@@H](NC(=O)c1ccccc1)C12CC3CC(CC(C3)C1)C2)C(=O)C(=O)NCC(=O)N1CCN(C)CC1
target of assay: Der p 1 (Dermatophagoides pteronyssinus, UniProt P08176)
recorded measurement: 0.005

compound: CC(C)[C@H](NC(=O)[C@H](C)NC(=O)[C@@H](NC(=O)c1ccccc1)C(C)(C)C)C(=O)C(=O)N[C@@H](C)c1ccccc1
target of assay: Der p 1 (Dermatophagoides pteronyssinus, UniProt P08176)
recorded measurement: 0.117

compound: CC(C)[C@H](NC(=O)[C@H](C)NC(=O)[C@@H](NC(=O)c1ccncc1)C(C)(C)C)C(=O)C(=O)NC1CCCCC1
target of assay: Der p 1 (Dermatophagoides pteronyssinus, UniProt P08176)
recorded measurement: 0.013

compound: CCCC[C@H](NC(=O)[C@H](C)NC(=O)[C@H](Cc1ccccc1)NC(=O)c1ccccc1)C(=O)C(=O)N1CCCC1
target of assay: Der p 1 (Dermatophagoides pteronyssinus, UniProt P08176)
recorded measurement: 0.997

compound: CC(C)[C@H](NC(=O)[C@H](C)NC(=O)[C@@H](NC(=O)c1ccnc2ccccc12)C(C)(C)C)C(=O)C(=O)NCC(=O)N1CCN(C(C)C)CC1
target of assay: Der p 1 (Dermatophagoides pteronyssinus, UniProt P08176)
recorded measurement: 0.003

compound: CCC[C@H](NC(=O)[C@H](Cc1ccccc1)NC(=O)c1ccccc1)C(=O)N[C@H](C(=O)C(=O)NC1CCCCC1)C(C)C
target of assay: Der p 1 (Dermatophagoides pteronyssinus, UniProt P08176)
recorded measurement: 0.164

compound: CC(C)[C@H](NC(=O)[C@H](C)NC(=O)[C@H](Cc1ccccc1)NC(=O)c1ccccc1)C(=O)C(=O)NCC(=O)N1CCN(C)CC1
target of assay: Der p 1 (Dermatophagoides pteronyssinus, UniProt P08176)
recorded measurement: 0.014

compound: CC(C)[C@H](NC(=O)[C@H](C)NC(=O)[C@H](Cc1ccccc1)NC(=O)c1cccc2ccccc12)C(=O)C(=O)NCC(=O)N1CCN(C)CC1
target of assay: Der p 1 (Dermatophagoides pteronyssinus, UniProt P08176)
recorded measurement: 0.02

compound: CC(C)C(NC(=O)[C@H](C)NC(=O)[C@H](Cc1ccccc1)NC(=O)c1ccccc1)C(=O)C(=O)NC1CCCCC1 (mixture of isomers)
target of assay: Der p 1 (Dermatophagoides pteronyssinus, UniProt P08176)
recorded measurement: 0.018

compound: CC(C)[C@H](NC(=O)[C@H](C)NC(=O)[C@@H](NC(=O)c1ccccc1)C(C)(C)C)C(=O)C(=O)NCc1ccc(S(N)(=O)=O)cc1
target of assay: Der p 1 (Dermatophagoides pteronyssinus, UniProt P08176)
recorded measurement: 0.006

compound: CC(C)[C@H](NC(=O)[C@H](C)NC(=O)[C@@H](NC(=O)c1ccccc1)C(C)(C)C)C(=O)C(=O)N[C@H](C)c1ccccc1
target of assay: Der p 1 (Dermatophagoides pteronyssinus, UniProt P08176)
recorded measurement: 0.017

compound: CC(C)[C@H](NC(=O)[C@H](C)NC(=O)[C@@H](NC(=O)C1CCN(C)CC1)C(C)(C)C)C(=O)C(=O)NCc1ccccc1
target of assay: Der p 1 (Dermatophagoides pteronyssinus, UniProt P08176)
recorded measurement: 0.019

The reported numbers originate from paper PMC4257840.
